read-out: catalase (CAT), CAT (gene 847); assay: LTEA_HepaRG_CAT: Life Technologies and Expression Analysis (LTEA) Assay for catalase (CAT) using HepaRG (AID 2283452); conditions: mRNA level, 48 h; actives raise or lower the signal
The source made the active and inactive calls. The calls were made as follows: active = hit-call score of the fitted dose curve at least 0.9, where 1 is the maximum; inactive = score below 0.9.
One label from this list, please: active, inactive

Use these answered entries as a reference point.
>>> class_name("CC(O)CC(C)(C)O (stereo not drawn)")
"inactive"
>>> class_name("CCCCCCCCOc1ccc(C(=O)c2ccccc2)c(O)c1")
"inactive"
>>> class_name("Cc1ncc(CO)c(CO)c1O")
"inactive"
>>> class_name("COc1cc(C(=O)NC2CCN(C)CC2)ccc1Nc1ncc2c(n1)N(C1CCCC1)CC(F)(F)C(=O)N2C")
"active"
>>> class_name("CCCCCCCCCCCC[N+](C)(C)C")
"active"

Asked: Each compound tested received a call. Report the one for O=C1c2ccccc2C(=O)N1CCc1noc(-c2ccc(CN3CCCCCC3)s2)n1 .
Given back: inactive

Asked: Each compound tested received a call. Report the one for O=c1[nH]sc2ccccc12 .
Given back: inactive

Asked: Each compound tested received a call. Report the one for Oc1ccc2ccccc2c1 .
Given back: inactive

Asked: Each compound tested received a call. Report the one for O=c1c(-c2ccc(O)cc2)coc2cc(O)cc(O)c12 .
Given back: inactive

Asked: Each compound tested received a call. Report the one for COCC(C)OCC(C)OCC(C)O (stereo not drawn) .
Given back: inactive

Asked: Each compound tested received a call. Report the one for C[C@]12CC[C@@H]3c4ccc(O)cc4CC[C@H]3[C@@H]1CC[C@H]2O .
Given back: inactive

Asked: Each compound tested received a call. Report the one for CN1C(=O)N(c2ccccc2Br)Cc2cnc(Nc3ccc4c(c3)OCC(CO)O4)nc21 (stereo not drawn) .
Given back: active
